Reference source: paper PMC3567257

# EXPERIMENTAL TARGET: JMJD2A DTD (Homo sapiens, UniProt O75164)
# Sequence (O75164 895-1011): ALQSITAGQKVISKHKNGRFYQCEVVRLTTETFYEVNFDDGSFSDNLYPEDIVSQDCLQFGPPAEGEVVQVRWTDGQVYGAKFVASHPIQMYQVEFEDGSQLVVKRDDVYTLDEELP
# METHOD NOTES: Fluorescence polarization counterscreen
# Assay type: binding
Where a name gives a salt, the structure may show the parent alone.
PROPERTY: IC50 (µM)
Answers are plain numbers, in µM.

Query string: State the recorded IC50 for this entry: [H]/N=C(/NCCCCC)N/N=C/c1c[nH]c2ccc(OC)cc12 [tegaserod, Tegaserod maleate]
Result string: 95

====

# EXPERIMENTAL TARGET: JARID1A PHD3 (Homo sapiens, UniProt P29375)
# Sequence (P29375 1601-1660): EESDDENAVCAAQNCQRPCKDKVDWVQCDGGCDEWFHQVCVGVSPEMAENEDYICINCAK
# METHOD NOTES: Zinc ejection study
# Assay type: biochemical
# EXPERIMENTAL SETUP: read-out: concentration for half-maximal zinc loss (PAR assay); 5 μM His6-JARID1A PHD3
PROPERTY: EC50 (µM)
One number for each entry, in µM.

Query string: Form field: reported EC50 of CSS(C)(=O)=O [MMTS, methyl methanethiosulfonate]
Result string: 33

====

# EXPERIMENTAL TARGET: JARID1A PHD3 (Homo sapiens)
# METHOD NOTES: Zinc ejection study
# Format: biochemical
PROPERTY: EC50 (µM)
Give bare numbers, in µM.

Query string: Fill in the blank: the reported EC50 of CCN(CC)C(=S)SSC(=S)N(CC)CC [disulfiram, tetraethylthiuram disulfide] is ____.
Result string: 10
